Parameter: pKd. Scope: all listed entries.
Target: T1, cyno IL-33 N-His (cynomolgus monkey)
T1 chain: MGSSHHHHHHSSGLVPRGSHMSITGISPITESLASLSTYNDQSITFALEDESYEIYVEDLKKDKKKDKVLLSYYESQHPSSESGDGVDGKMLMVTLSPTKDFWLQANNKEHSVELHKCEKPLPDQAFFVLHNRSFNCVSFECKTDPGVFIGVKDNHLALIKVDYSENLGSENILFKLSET
Experiment: SPR Biacore T200, 25 C
Please note pKd is a logarithmic value: minus log10 of concentration in mol/L. Answer with that number alone.

1. H4H9675P (antibody, V domains shown) VH: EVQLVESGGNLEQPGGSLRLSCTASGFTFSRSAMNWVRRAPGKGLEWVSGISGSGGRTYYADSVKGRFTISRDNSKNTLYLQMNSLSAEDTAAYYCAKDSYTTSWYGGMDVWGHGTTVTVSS VL: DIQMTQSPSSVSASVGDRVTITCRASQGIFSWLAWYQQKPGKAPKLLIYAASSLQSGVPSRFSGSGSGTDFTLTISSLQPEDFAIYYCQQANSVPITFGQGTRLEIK: 8.56
2. H4H9676P (antibody, V domains shown) VH: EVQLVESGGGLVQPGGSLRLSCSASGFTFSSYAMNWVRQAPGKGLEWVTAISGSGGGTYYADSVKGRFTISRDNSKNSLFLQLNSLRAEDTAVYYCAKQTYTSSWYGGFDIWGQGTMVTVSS VL: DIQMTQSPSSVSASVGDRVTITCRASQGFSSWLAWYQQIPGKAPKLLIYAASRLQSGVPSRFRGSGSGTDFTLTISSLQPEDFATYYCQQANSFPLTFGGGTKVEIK: 8.50
3. 10C12.38.H6.87Y.58I IgG4 (antibody, V domains shown, also called anti-IL33 10C12.38.H6.87Y.58I IgG4) VH: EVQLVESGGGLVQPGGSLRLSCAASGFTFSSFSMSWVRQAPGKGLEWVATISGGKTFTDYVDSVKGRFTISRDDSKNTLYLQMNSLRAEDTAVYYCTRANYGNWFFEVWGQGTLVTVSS VL: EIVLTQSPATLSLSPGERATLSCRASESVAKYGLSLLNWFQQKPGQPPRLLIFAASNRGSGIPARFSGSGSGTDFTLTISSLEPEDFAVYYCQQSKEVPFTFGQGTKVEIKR: 9.58

Please report the measured pKd for H4H9670P (antibody, V domains shown) VH: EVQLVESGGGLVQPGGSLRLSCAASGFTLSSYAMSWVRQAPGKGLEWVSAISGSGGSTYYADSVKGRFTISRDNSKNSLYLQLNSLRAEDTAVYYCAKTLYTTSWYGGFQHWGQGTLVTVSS VL: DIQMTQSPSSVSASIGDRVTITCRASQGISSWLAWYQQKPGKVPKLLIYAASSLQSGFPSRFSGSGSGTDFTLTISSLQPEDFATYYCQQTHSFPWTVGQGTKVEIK
8.58

Please report the measured pKd for H4H9662P (antibody, V domains shown) VH: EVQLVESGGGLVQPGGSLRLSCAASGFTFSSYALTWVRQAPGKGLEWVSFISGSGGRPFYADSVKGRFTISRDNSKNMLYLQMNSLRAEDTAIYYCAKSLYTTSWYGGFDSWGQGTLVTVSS VL: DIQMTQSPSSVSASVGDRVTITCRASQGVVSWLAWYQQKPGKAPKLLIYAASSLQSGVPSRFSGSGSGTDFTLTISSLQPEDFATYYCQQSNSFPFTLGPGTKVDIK
8.89

Please report the measured pKd for H4H9667P (antibody, V domains shown) VH: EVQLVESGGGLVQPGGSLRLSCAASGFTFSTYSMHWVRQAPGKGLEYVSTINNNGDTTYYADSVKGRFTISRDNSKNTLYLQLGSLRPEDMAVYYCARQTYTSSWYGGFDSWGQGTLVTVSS VL: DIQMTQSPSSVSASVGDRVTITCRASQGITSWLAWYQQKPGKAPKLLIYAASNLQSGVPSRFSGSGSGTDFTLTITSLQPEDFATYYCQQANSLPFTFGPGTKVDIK
8.55
